As shown below, each of these compounds has a reported GI50 value.
system: MCF7; test: Cytotoxicity against human MCF7 cells assessed as growth inhibition after 3 days by MTT assay; type: functional; details: MCF7, 72 h
Quick note: give the figure in µM, leave out the unit.

Data request: Could you share which GI50 value was measured for C[C@]12CCC(=O)N[C@@H]1CC[C@@H]1[C@@H]2CC[C@]2(C)O[C@H](n3cnc4c(NCc5ccccc5)ncnc43)CC[C@@H]12 ?
Data returned: 136

Data request: Could you share which GI50 value was measured for C[C@]12CCC(=O)N[C@@H]1CC[C@@H]1[C@@H]2CC[C@]2(C)O[C@H](n3cnc4c(Cl)ncnc43)CC[C@@H]12 ?
Data returned: 20.9

Data request: Could you share which GI50 value was measured for C[C@]12CCC(=O)N[C@@H]1CC[C@@H]1[C@@H]2CC[C@]2(C)O[C@H](n3cnc4c(Cl)nc(F)nc43)CC[C@@H]12 ?
Data returned: 16.7

Data request: Could you share which GI50 value was measured for CC(=O)O[C@H]1C(=O)[C@@]2(C)[C@H]([C@H](OC(=O)c3ccccc3)[C@]3(O)C[C@H](OC(=O)[C@H](O)[C@@H](NC(=O)c4ccccc4)c4ccccc4)C(C)=C1C3(C)C)[C@]1(OC(C)=O)CO[C@@H]1C[C@@H]2O ?
Data returned: 1.07

Data request: Could you share which GI50 value was measured for C[C@]12CCC(=O)N[C@@H]1CC[C@@H]1[C@@H]2CC[C@]2(C)O[C@H](n3cnc4c(Cl)nc(Cl)nc43)CC[C@@H]12 ?
Data returned: 34.2

Cited source for all entries: ChEMBL document CHEMBL1833849
